Sourced from patent US6197768A

# assay.system: UniProt O77746
measured.metric: IC50 (nM)

- O=c1ccn2c3ccc(Cl)cc3c3cc(Cl)cc1c32 [Example 264]: 80
- CCCOC(=O)COc1cc2c(=O)c(Cc3cccnc3)cn3c4ccc(Br)cc4c(c1)c23 [Example 7]: 4.3
- O=C(COc1cc2c(=O)c(Cc3cccnc3)cn3c4ccc(Br)cc4c(c1)c23)OC1CCCCC1 [Example 15]: 45

----------
# assay.system: PDE type III (Canis lupus familiaris, UniProt A0A8I3NYE0)
# Construct: PDE was purified from the aorta in a dog; from tissue; host or cells: dog aorta
# Sequence (A0A8I3NYE0 1-1135): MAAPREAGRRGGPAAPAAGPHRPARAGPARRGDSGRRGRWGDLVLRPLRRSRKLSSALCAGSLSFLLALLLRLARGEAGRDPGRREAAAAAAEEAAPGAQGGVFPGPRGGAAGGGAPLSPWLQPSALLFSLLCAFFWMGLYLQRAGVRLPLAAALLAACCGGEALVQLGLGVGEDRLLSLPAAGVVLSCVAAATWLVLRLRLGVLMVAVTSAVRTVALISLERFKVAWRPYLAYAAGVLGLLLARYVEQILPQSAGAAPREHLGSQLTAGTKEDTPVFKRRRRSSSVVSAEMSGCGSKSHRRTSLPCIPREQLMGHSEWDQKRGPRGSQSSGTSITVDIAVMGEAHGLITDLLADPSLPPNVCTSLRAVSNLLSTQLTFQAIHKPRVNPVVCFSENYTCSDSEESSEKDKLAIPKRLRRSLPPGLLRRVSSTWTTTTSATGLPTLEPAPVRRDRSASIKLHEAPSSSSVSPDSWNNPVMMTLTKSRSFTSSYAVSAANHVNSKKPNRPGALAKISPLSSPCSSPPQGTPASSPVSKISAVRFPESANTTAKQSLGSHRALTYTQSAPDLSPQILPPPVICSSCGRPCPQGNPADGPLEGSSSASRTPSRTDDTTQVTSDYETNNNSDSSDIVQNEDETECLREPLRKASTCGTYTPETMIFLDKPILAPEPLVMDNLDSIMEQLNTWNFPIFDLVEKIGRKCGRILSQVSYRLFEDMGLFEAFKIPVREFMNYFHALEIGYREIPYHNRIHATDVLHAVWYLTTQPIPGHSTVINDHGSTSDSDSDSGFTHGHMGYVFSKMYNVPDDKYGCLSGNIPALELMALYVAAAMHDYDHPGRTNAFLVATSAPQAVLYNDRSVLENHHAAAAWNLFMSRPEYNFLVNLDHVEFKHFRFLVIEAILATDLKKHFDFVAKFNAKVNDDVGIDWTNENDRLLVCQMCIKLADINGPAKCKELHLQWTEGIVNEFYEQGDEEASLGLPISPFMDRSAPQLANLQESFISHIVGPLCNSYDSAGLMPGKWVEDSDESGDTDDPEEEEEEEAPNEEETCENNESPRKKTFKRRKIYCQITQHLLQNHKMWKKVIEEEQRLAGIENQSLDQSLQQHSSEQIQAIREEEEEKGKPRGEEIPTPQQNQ
# measurement.notes: PDE Inhibiting Activity, type III
# Format: biochemical, dog (canine aorta)
# condition.context: PDE type III from canine aorta, 1 μM substrate, pH 7.5; read-out: Inhibition Activity IC50, Type III
log10 IC50 overview
measured.metric: log10 IC50 (log10 of the value in µM)

* O=c1c(Cc2cccnc2)cn2c3cc(Cl)ccc3c3cc(OCCCO)cc1c32 | 0.56
* O=c1c(Cc2cccnc2)cn2c3ccccc3c3cc(O)cc1c32 | 0.86
* O=C(COc1cc2c(=O)c(Cc3cccnc3)cn3c4ccc(Br)cc4c(c1)c23)OC1CCCCC1 | 1.18
* O=c1c(Cc2cccnc2)cn2c3cc(Br)ccc3c3cc(OCc4cccnc4)cc1c32 | 0.38
* O=c1c(Cc2ccccc2)cn2c3cc(Br)ccc3c3cc(O)cc1c32 | 1.11
* O=c1ccn2c3ccc(Cl)cc3c3cccc1c32 | 0.84
* O=c1c(Cc2cccnc2)cn2c3cc(Br)ccc3c3cc(OCCCO)cc1c32 | 1.00
* Cc1cn2c3ccc(Br)cc3c3cc(O)cc(c1=O)c32 | 2.30
* O=c1c(Cc2cccnc2)cn2c3ccc(Br)cc3c3cc(OCc4cccnc4)cc1c32 | 0.28
* CC(=O)Oc1cc2c(=O)c(Cc3cccnc3)cn3c4ccccc4c(c1)c23 | 0.75

----------
# assay.system: PDE type III (Canis lupus familiaris)
# Construct: PDE was purified from the aorta in a dog; from tissue; host or cells: dog aorta
# measurement.notes: PDE Inhibiting Activity, type III
# Assay type: biochemical, dog (canine aorta)
# condition.context: PDE type III from canine aorta, 1 μM substrate, pH 7.5; read-out: Inhibition Activity IC50, Type III
pIC50: −log10 of the molar value.
Overview of reported pIC50 across a group of compounds:
measured.metric: pIC50

- CC(C)OC(=O)COc1cc2c(=O)c(Cc3cccnc3)cn3c4ccc(Br)cc4c(c1)c23 [Example 4]: 5.17
- O=c1c(Cc2cccnc2)cn2c3ccc(Br)cc3c3cc(OCc4ccccc4)cc1c32 [Example 22]: 4.96
- O=c1c(Cc2cccnc2)cn2c3cc(Br)ccc3c3cc(O)cc1c32 [Example 102]: 5.03
- CC(=O)Oc1ccc2c3cccc4c(=O)c(Cc5cccnc5)cn(c2c1)c43 [Example 226]: 4.92

----------
# assay.system: PDE type III (Canis lupus familiaris, UniProt A0A8I3NYE0)
# Construct: PDE was purified from the aorta in a dog; from tissue; host or cells: dog aorta
# measurement.notes: PDE Inhibiting Activity, type III
# Format: biochemical, dog (canine aorta)
# condition.context: PDE type III from canine aorta, 1 μM substrate, pH 7.5; read-out: Inhibition Activity IC50, Type III
As shown below, each of these compounds has a reported IC50 value.
measured.metric: IC50

• O=C(O)COc1cc2c(=O)ccn3c4ccc(Br)cc4c(c1)c23 = > 30 µM
• Cc1cc2c(=O)ccn3c4ccc(Br)cc4c(c1)c23 = > 30 µM
• CCOC(=O)COc1cc2c(=O)ccn3c4ccc(Br)cc4c(c1)c23 = > 30 µM
• O=c1ccn2c3ccc(Br)cc3c3cc(OCc4cccnc4)cc1c32 = 81 µM
• O=c1c(Cc2cccnc2)cn2c3ccc(Br)cc3c3cc(O)cc1c32 = 3.6 µM
• CCOC(=O)COc1cc2c(=O)c(Cc3cccnc3)cn3c4ccc(Br)cc4c(c1)c23 = 19 µM
• CCCC(=O)COc1cc2c(=O)ccn3c4ccc(Br)cc4c(c1)c23 = > 30 µM
• O=c1c(Cc2cccnc2)cn2c3cc(Br)ccc3c3cc(OCc4cncc(CO)c4)cc1c32 = > 30 µM
• CC(C)OC(=O)COc1cc2c(=O)ccn3c4ccc(Br)cc4c(c1)c23 = > 30 µM
• CC(C)(C)OC(=O)COc1cc2c(=O)ccn3c4ccc(Br)cc4c(c1)c23 = 15 µM
• CCCOC(=O)COc1cc2c(=O)c(Cc3cccnc3)cn3c4ccc(Br)cc4c(c1)c23 = > 30 µM
• O=c1c(Cc2cccnc2)cn2c3cc(C(F)(F)F)ccc3c3cc(OCCCO)cc1c32 = 2.5 µM
• O=c1ccn2c3ccc(Br)cc3c3cc(O)cc1c32 = > 100 µM
• O=c1ccn2c3ccc(Cl)cc3c3cc(Cl)cc1c32 = > 30 µM
• CC(C)(C)OC(=O)COc1cc2c(=O)c(Cc3cccnc3)cn3c4ccc(Br)cc4c(c1)c23 = > 30 µM
• CCOC(=O)COc1cc2c(=O)c(Cc3cccnc3)cn3c4ccc(Cl)cc4c(c1)c23 = 3.9 µM
• CCCC(=O)COc1cc2c(=O)c(C)cn3c4ccc(Br)cc4c(c1)c23 = > 30 µM
• O=C(O)COc1cc2c(=O)c(Cc3cccnc3)cn3c4cc(Br)ccc4c(c1)c23 = 3.5 µM
